Target: T1, recombinant human TIGIT (human, UniProt Q495A1 22-141, limits assumed)
T1 construct: recombinant human TIGIT used in Carterra SPR; also called hTIGIT
T1 sequence (looked up): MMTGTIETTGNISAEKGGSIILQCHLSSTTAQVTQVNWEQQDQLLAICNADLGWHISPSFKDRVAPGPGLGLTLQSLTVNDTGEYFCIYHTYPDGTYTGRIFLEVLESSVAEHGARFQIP
Assay: SPR Carterra, average
Recorded koff by entry

# binder, unit_symbol, koff
measured = [
    ("TIGIT-SC145 (Fc fusion, VHH-Fc fusion in assay) VHH: EVQLVESGGGLVQPGGSLRLSCAASGNTFSGGFTLGYYVMGWFRQAPGKEREFVAAISRSGTLKAYADGVKGRFTISADNSKNTAYLQMNSLKPEDTAVYYCARVEAYGDPLGYWGQGTLVTVSS", "s⁻¹", 0.0108),
    ("TIGIT-SC90 (Fc fusion, VHH-Fc fusion in assay) VHH: EVQLVESGGGLVQPGGSLRLSCAASGDTFSSKAMGWFRQAPGKEREFVAAIRWSVSSTYYADSVKGRFTISADNSKNTAYLQMNSLKPEDTAVYYCARWTRGLVSGTYYYYMDVWGQGTLVTVSS", "s⁻¹", 0.00301),
]

Data origin: patent US20260184782A1
